Species: Rattus norvegicus
Assay: Open TG-GATES - Regimen: Single
Type: toxicity, organism-based, Sprague-Dawley
Set-up: regimen Single, gender Male, age 6 weeks
Conditions: in vivo, po, 100 mg/kg, 3 h, tissue Plasma, route gavage, dose level Low
MEASUREMENT_KIND: TP (g/dL)
Numeric answer only, unit g/dL assumed.

Some compounds with recorded TP:
[in] Check the records and state TP for CNC(=C[N+](=O)[O-])NCCSCc1ccc(CN(C)C)o1 [RANITIDINE]
[out] 5.6

[in] Check the records and state TP for O=C(OC[C@H]1O[C@@H](OC(=O)c2cc(O)c(O)c(OC(=O)c3cc(O)c(O)c(O)c3)c2)[C@H](OC(=O)c2cc(O)c(O)c(OC(=O)c3cc(O)c(O)c(O)c3)c2)[C@@H](OC(=O)c2cc(O)c(O)c(OC(=O)c3cc(O)c(O)c(O)c3)c2)[C@@H]1OC(=O)c1cc(O)c(O)c(OC(=O)c2cc(O)c(O)c(O)c2)c1)c1cc(O)c(O)c(OC(=O)c2cc(O)c(O)c(O)c2)c1 [TANNIC ACID]
[out] 5.3

[in] Check the records and state TP for COC(=O)C1=C(C)NC(C)=C(C(=O)OC)C1c1ccccc1[N+](=O)[O-] [NIFEDIPINE]
[out] 5.3

[in] Check the records and state TP for CN/C(=N/CCSCc1nc[nH]c1C)NC#N [CIMETIDINE]
[out] 5.5

Turning now to a further record.
[in] Check the records and state TP for Cc1nnc2n1-c1ccc(Cl)cc1C(c1ccccc1Cl)=NC2 [TRIAZOLAM]
[out] 5.1

Reference source for all entries: ChEMBL document CHEMBL3885861
